- Experimental target: CaLsb4
- Protocol summary: SPOT peptide array binding signal intensity (averaged, normalized) (arbitrary units (background-subtracted, floor 0; scale differs between SH3 domains)); higher = stronger binding of the SH3 domain to the peptide
Some binders, each annotated with its measured SPOT peptide array binding signal intensity.
Recorded metric: SPOT peptide array binding signal intensity

{"Binder": "PPLPRAPPVPPATFE", "Qualifier sign": "≤", "Numeric value": 0}
{"Binder": "LPPPPPPPPPPPLPQ", "Qualifier sign": "≤", "Numeric value": 0}
{"Binder": "QPPLPSSAPPIPTSH", "Qualifier sign": "≤", "Numeric value": 0}
{"Binder": "GKKVRPLLVLLLSRA", "Qualifier sign": "=", "Numeric value": 7.5}
{"Binder": "QQNRPLPQLPNRNNR", "Qualifier sign": "=", "Numeric value": 4700}
{"Binder": "AHFQPQRTAPKPPIS", "Qualifier sign": "=", "Numeric value": 23}
{"Binder": "IRMPSNPALPKKLLN", "Qualifier sign": "=", "Numeric value": 692}
{"Binder": "HAPPLPPTAPPPPSL", "Qualifier sign": "≤", "Numeric value": 0}
{"Binder": "SSSSTPPTLPPRRIE", "Qualifier sign": "=", "Numeric value": 7260}
{"Binder": "RPVPRRPSQPLNTLS", "Qualifier sign": "=", "Numeric value": 2000}
{"Binder": "RKNRAPPQRPRFNRD", "Qualifier sign": "=", "Numeric value": 698}
{"Binder": "ATKSASPTLPTRRSR", "Qualifier sign": "=", "Numeric value": 6350}
{"Binder": "APKREAPKPPANTSP", "Qualifier sign": "≤", "Numeric value": 0}
{"Binder": "NFFRKKLGIPRKLKR", "Qualifier sign": "≤", "Numeric value": 0}
{"Binder": "SRSKPLPLTPNSKYN", "Qualifier sign": "=", "Numeric value": 10.5}
{"Binder": "HKVLRPFLLRRLKKD", "Qualifier sign": "≤", "Numeric value": 0}
{"Binder": "KTRLRPAFIQQLWSS", "Qualifier sign": "=", "Numeric value": 14}
{"Binder": "NNNKMRPHLPPLSSG", "Qualifier sign": "=", "Numeric value": 728}
{"Binder": "NLDRSKISLPDFDDE", "Qualifier sign": "≤", "Numeric value": 0}
{"Binder": "PSPSSSPPPIPKTAN", "Qualifier sign": "=", "Numeric value": 4.5}
{"Binder": "NRARYLPQNPDIIAG", "Qualifier sign": "=", "Numeric value": 4}
{"Binder": "HPRFVSPRIPSRIVK", "Qualifier sign": "=", "Numeric value": 933}
{"Binder": "APKHAPPPVPNETDN", "Qualifier sign": "≤", "Numeric value": 0}
{"Binder": "NRPAIRIPSLKKPAL", "Qualifier sign": "=", "Numeric value": 10.5}
{"Binder": "VPVAPPPPPASLGQS", "Qualifier sign": "≤", "Numeric value": 0}
{"Binder": "DFTLPPPPPPPGLDE", "Qualifier sign": "≤", "Numeric value": 0}
{"Binder": "DKSRPPRPPPKPLHL", "Qualifier sign": "=", "Numeric value": 471}
{"Binder": "NHSRSLFSLPGNQQS", "Qualifier sign": "≤", "Numeric value": 0}
{"Binder": "NAGIRPKFILALNDE", "Qualifier sign": "≤", "Numeric value": 0}
